experiment: HPLC RCP of 99mTc-labelled depreotide with hydrophilic thioether additives; format: physicochemical; conditions: 99mTc-depreotide kit; additive 4 mg in 100 μL; heated; 6.5 hr
measured.attribute: 6.5 hr RCP (%)
Return type: number; implicit unit %.

Study these solved cases before continuing.
• CSCC[C@H](N)C(=O)O = 89.3
• CSCC[C@H](N)CO = 90.7
• CSCC(O)CO (stereo not shown) = 80.9

Asked: // lookup 6.5 hr RCP for CCSCCN [2-(Ethylthio)ethylamine]
Given back: 93.3

---

Below, each entry is listed alongside its reported Initial RCP.
assay: HPLC RCP of 99mTc-labelled depreotide with hydrophilic thioether additives; type: physicochemical; conditions: 99mTc-depreotide kit; additive 4 mg in 100 μL; heated; initial
Report only the number, with the unit % understood.

Look over these answered cases.
* CSCC[C@H](N)C(=O)O | 95
* CSCC(O)CO (stereo not shown) | 89.1

Asked: I am curious: what Initial RCP value has been reported for "CSCC[C@H](N)CO" ?
Given back: 94.1

Asked: Proceed to CCSCCN [2-(Ethylthio)ethylamine]
Given back: 92.8

---

assay: HPLC RCP of 99mTc-labelled depreotide with hydrophilic thioether additives; type: physicochemical; conditions: 99mTc-depreotide kit; additive 4 mg in 100 μL; heated; 3.5 hr
Items are presented alongside their recorded 3.5 hr RCP.
Value expressed in %; do not type the unit.

- CSCC[C@H](N)C(=O)O [L-methionine]: 90.4

Asked: Suppose we examine the compound CCSCCN [2-(Ethylthio)ethylamine] ; what 3.5 hr RCP value has been reported?
Given back: 94.2

Asked: Ok, now CSCC[C@H](N)CO [Methioninol, methioninol]
Given back: 93.9

Asked: Same thing, different compound: CSCC(O)CO (stereo not shown) [3-Methylthio-1,2-propanediol, 3-methylthio-1,2-propanediol]
Given back: 84

---

assay: HPLC RCP of 99mTc-labelled depreotide with hydrophilic thioether additives; format: physicochemical
measured.attribute: Effect on radiolabelling yield and stability of 99mTc-labelled peptide (depreotide)

In the examples that follow, each entry is paired with its recorded Effect on radiolabelling yield and stability of 99mTc-labelled peptide (depreotide).
- C[S+]([O-])CC[C@H](N)C(=O)O (stereo partly drawn) [Methionine sulfoxide, reference compound]: no effect
- CSCC[C@H](N)CO: increase
- CSCC(O)CO (stereo not drawn): increase
- CS(=O)(=O)CC[C@H](N)C(=O)O [methionine sulfone, reference compound]: no effect
- CCSCCN [2-(Ethylthio)ethylamine]: increase

Asked: Quick one: Effect on radiolabelling yield and stability of 99mTc-labelled peptide (depreotide) for CSCCC=O [3-(methylthio)propionaldehyde, reference compound] ?
Given back: no effect
